Assay Notes: Neurotoxicity in ip dosed albino CF1 mouse assessed as minimal motor coordination impairment by rotarod test
Assay type: toxicity, organism-based
Settings: in vivo
Assay Metric: TD50 (mg/kg)
Response body: numeric value in mg/kg, unit text excluded.

Observe how each entry below is paired with its result.
CC(C)[C@@H](N)C(=O)NCCc1cccc(F)c1    67
CCC(C)C(=O)NCc1ccccc1 (racemic)    165
CC(C)[C@@H](N)CNCc1ccccc1    100
CC(C)[C@H](C(=O)NCc1ccccc1)N(C)C    100
CC(C)[C@@H](N)C(=O)NCCc1ccccc1F    79

Query: Give the value of TD50 reported for the following: CC(C)[C@@H](N)C(=O)NCCCCc1ccccc1
Result: 38

Query: Give reported TD50 value for CC[C@H](C)C(=O)NCc1ccccc1
Result: 300

Query: Consider the compound CCCC(=O)NCc1ccccc1 . State its measured TD50.
Result: 100

Query: State, in one line, measured TD50 of CC(C)[C@@H](N)C(=O)NCc1cccc(OC(F)(F)F)c1
Result: 30

Query: Supply TD50 value. Item: CC[C@@H](O)C(=O)NCc1ccccc1
Result: 100

Query: For the compound CC(C)[C@@H](N)C(=O)NCCc1ccc(F)cc1 , report TD50.
Result: 30

* * *

Assay Notes: Neurotoxicity in ip dosed albino CF1 mouse assessed as minimal motor coordination impairment by rotarod test
Format: toxicity, organism-based
Settings: in vivo
Assay Metric: TD50 (mg/kg)
Reply with just the number (in mg/kg).

CC(C)[C@@H](N)C(=O)NCCc1ccccc1    50
CC(C)[C@@H](N)C(=O)CCc1ccccc1.Cl    100
CC(C)[C@@H](N)C(=O)NCC1CCCCC1    100
CC(C)[C@@H](N)C(=O)NCCCc1ccccc1    43
CC(C)[C@@H](N)C(=O)NCc1ccccc1OC(F)(F)F    51

Shifting focus to the compound that follows.
Query: Consider the compound CC(C)[C@@H](N)C(=S)NCc1ccccc1 and give its recorded TD50.
Result: 30
